Every entry's value here was drawn from patent US20240400654A1.

Below, each of the binders is paired with its reported Ratio OD(Variant)/OD(WT) value.
target: HRgpA-6H (Porphyromonas gingivalis) (UniProt P28784); experiment: ELISA, coated HRgpA-6H

{"columns": ["Binder", "Ratio OD(Variant)/OD(WT)"],
 "data": [
  ["KB001 mouse Fab VH H35V (Fab, V domains shown) VH: EVQLKQSGPGLVAPSQSLSITCTVSGFSLSIYSVVWVRQPPGKGLEWLGMIWGGGSSDYNSALKSRLSISKDNSKSQVFLKMNSLQTDDTAMYYCARNGNFYAMDYWGQGTSVTVSS VL: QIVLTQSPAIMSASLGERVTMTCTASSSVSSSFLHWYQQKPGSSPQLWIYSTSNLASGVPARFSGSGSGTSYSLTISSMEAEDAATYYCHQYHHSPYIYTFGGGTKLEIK", 0.856]
]}

Here is another binder to look at.
**Q:** # lookup: Ratio OD(Variant)/OD(WT) of KB001 mouse Fab VH Y106Q (Fab, V domains shown) VH: EVQLKQSGPGLVAPSQSLSITCTVSGFSLSIYSVHWVRQPPGKGLEWLGMIWGGGSSDYNSALKSRLSISKDNSKSQVFLKMNSLQTDDTAMYYCARNGNFYAMDQWGQGTSVTVSS VL: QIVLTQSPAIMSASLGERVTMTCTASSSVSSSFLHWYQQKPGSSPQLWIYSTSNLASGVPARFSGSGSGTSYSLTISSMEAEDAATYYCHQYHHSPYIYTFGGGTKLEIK
**A:** 1.03
